# Assay target: Human Elastase (Homo sapiens, UniProt P08246)
# Sequence (P08246 30-267): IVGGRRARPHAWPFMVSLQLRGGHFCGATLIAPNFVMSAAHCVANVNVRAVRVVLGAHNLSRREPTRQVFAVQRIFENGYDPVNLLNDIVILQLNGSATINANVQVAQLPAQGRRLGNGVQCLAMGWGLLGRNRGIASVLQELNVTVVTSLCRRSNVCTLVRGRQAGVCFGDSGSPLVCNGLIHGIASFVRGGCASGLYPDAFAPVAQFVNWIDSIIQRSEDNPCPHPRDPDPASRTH
pIC50: −log10 of the molar value.
Recorded metric: pIC50

Task: Given the compound Cc1ccc(N2CCN(C)CC2)cc1C(=O)NC1(c2cc(-c3cnn(C)c3)nc3ccccc23)CC1 , what is its reported pIC50?
Output: < 4.00

###

# Assay target: Human Thrombin (Homo sapiens, UniProt P00734)
pIC50: −log10 of the molar value.
Recorded metric: pIC50

Task: Given the molecule Cc1ccc(N2CCN(C)CC2)cc1C(=O)NC1(c2cc(-c3cnn(C)c3)nc3ccccc23)CC1 , what is its reported pIC50?
Output: < 4.00

###

# Assay target: UniProtKB P43235
# Sequence (P43235 115-329): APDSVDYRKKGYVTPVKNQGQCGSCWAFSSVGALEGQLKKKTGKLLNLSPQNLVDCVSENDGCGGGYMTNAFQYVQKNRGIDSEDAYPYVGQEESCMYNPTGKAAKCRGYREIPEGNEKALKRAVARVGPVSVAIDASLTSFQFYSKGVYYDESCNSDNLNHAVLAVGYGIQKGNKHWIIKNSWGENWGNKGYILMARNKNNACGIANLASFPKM
Recorded metric: IC50

Task: Given the compound Cc1ccc(N2CCN(C)CC2)cc1C(=O)NC1(c2cc(-c3cnn(C)c3)nc3ccccc23)CC1 [Compound 4] , what is its reported IC50?
Output: > 100 µM

###

# System: Vero E6 cells
# Assay conditions: read-out: Mean CC50; n=3
Recorded metric: CC50 (µM)
Please give a number only; it is taken to be in µM.

Task: Given the compound Cc1ccc(N2CCN(C)CC2)cc1C(=O)NC1(c2cc(-c3cnn(C)c3)nc3ccccc23)CC1 , what is its reported CC50?
Output: 78.7

###

# Experiment summary: Dog pharmacokinetics
# Format: in vivo, Beagle dog
# Assay conditions: male, Beagle, plasma, 0.5 mg/kg; dog (d); intravenous; read-out: Vdss
Recorded metric: Vd (L/kg)
Please give a number only; it is taken to be in L/kg.

Task: Given the compound Cc1ccc(N2CCN(C)CC2)cc1C(=O)NC1(c2cc(-c3cnn(C)c3)nc3ccccc23)CC1 , what is its reported Vd?
Output: 1.59

###

# Assay target: Human Immunodeficiency Virus-1 protease (Human immunodeficiency virus type 1 group M subtype B)
Recorded metric: IC50

Task: Given the compound Cc1ccc(N2CCN(C)CC2)cc1C(=O)NC1(c2cc(-c3cnn(C)c3)nc3ccccc23)CC1 , what is its reported IC50?
Output: > 100 µM

###

# Experiment summary: in vivo
# Set-up: species or system mouse
# Assay conditions: in vivo; Male C57BL6 mouse; 10 mg/kg po; solution; mean n=2
Recorded metric: AUC(0-inf) (ng·h/mL)
Please give a number only; it is taken to be in ng·h/mL.

Task: Given the compound Cc1ccc(N2CCN(C)CC2)cc1C(=O)NC1(c2cc(-c3cnn(C)c3)nc3ccccc23)CC1 , what is its reported AUC(0-inf)?
Output: 3760

###

# Experiment summary: in vivo
# Parameters: species or system mouse
# Assay conditions: in vivo; mouse Balb c female; PO 50 mg/kg; suspension
Recorded metric: Cmax (ng/mL)
Please give a number only; it is taken to be in ng/mL.

Task: Given the compound Cc1ccc(N2CCN(C)CC2)cc1C(=O)NC1(c2cc(-c3cnn(C)c3)nc3ccccc23)CC1 , what is its reported Cmax?
Output: 5410

###

# Experiment summary: in vitro
# Assay conditions: both, human, plasma
Recorded metric: fraction unbound
// print number alone

Task: Given the compound Cc1ccc(N2CCN(C)CC2)cc1C(=O)NC1(c2cc(-c3cnn(C)c3)nc3ccccc23)CC1 , what is its reported fraction unbound?
Output: 0.109

###

# Experiment summary: in vitro
# Assay conditions: male, Wistar-Hannover, rat, plasma
Recorded metric: fraction unbound

Task: Given the molecule Cc1ccc(N2CCN(C)CC2)cc1C(=O)NC1(c2cc(-c3cnn(C)c3)nc3ccccc23)CC1 , what is its reported fraction unbound?
Output: 0.241

###

# Experiment summary: Rat pharmacokinetics
# Assay type: in vivo, Wistar-Hannover rat
# Assay conditions: Wistar-Hannover, plasma; Male Wistar Hanover Rat; 1.0 mg/kg iv; solution; mean n=2
Recorded metric: AUC(0-inf) (ng·h/mL)
Please give a number only; it is taken to be in ng·h/mL.

Task: Given the molecule Cc1ccc(N2CCN(C)CC2)cc1C(=O)NC1(c2cc(-c3cnn(C)c3)nc3ccccc23)CC1 [Compound 4] , what is its reported AUC(0-inf)?
Output: 668

###

# Assay target: CYP2D6 (Homo sapiens, UniProt P10635)
# Sequence (P10635 whole entry): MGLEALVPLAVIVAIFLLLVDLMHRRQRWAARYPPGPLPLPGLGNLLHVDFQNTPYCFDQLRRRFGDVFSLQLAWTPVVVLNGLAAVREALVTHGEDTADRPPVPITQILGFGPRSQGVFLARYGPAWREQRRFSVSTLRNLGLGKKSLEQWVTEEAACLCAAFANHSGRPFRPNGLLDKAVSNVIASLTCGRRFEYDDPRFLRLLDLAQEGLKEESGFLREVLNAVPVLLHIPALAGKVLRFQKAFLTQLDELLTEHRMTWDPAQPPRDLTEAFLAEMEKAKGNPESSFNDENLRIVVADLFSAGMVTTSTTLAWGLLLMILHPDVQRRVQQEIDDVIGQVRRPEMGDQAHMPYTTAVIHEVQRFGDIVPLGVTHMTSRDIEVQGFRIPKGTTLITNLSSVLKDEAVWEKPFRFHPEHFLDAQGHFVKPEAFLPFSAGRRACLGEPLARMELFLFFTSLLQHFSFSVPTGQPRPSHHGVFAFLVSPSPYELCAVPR
Recorded metric: IC50

Task: Given the compound Cc1ccc(N2CCN(C)CC2)cc1C(=O)NC1(c2cc(-c3cnn(C)c3)nc3ccccc23)CC1 , what is its reported IC50?
Output: > 30 µM

###

# Experiment summary: Rat pharmacokinetics
# Assay type: in vivo, Wistar-Hannover rat
# Assay conditions: Wistar-Hannover, plasma; Male Wistar Hanover Rat; 10 mg/kg po; solution; mean n=2
# Excerpt: Figure S1. Setting Up the Collaboration Workflow and Operations Preclinical Pharmacokinetics Studies […] Mouse pharmacokinetic studies were done at BioDuro Pharmaceutical Product Development Inc. (Shanghai, PRC); male C57BL6 mice were purchased from Vital River (Beijing, China) and were typically 7-9 weeks of age at the time of dosing. […] Animals were monitored for pain or distress throughout the study, with at least daily monitoring during normal husbandry prior to study start. […]
Recorded metric: Tmax (h)
Please give a number only; it is taken to be in h.

Task: Given the compound Cc1ccc(N2CCN(C)CC2)cc1C(=O)NC1(c2cc(-c3cnn(C)c3)nc3ccccc23)CC1 , what is its reported Tmax?
Output: 3

###

# Experiment summary: Monkey pharmacokinetics
# Assay type: in vivo
# Assay conditions: plasma; Male Cynomolgus Monkey; 1.0 mg/kg iv; solution; mean n=2; read-out: Vdss
Recorded metric: Vd (L/kg)
Please give a number only; it is taken to be in L/kg.

Task: Given the compound Cc1ccc(N2CCN(C)CC2)cc1C(=O)NC1(c2cc(-c3cnn(C)c3)nc3ccccc23)CC1 , what is its reported Vd?
Output: 2.09

###

# Experiment summary: Dog pharmacokinetics
# Format: in vivo, Beagle dog
# Assay conditions: plasma; Male Beagle Dog; 3.0 mg/kg po; suspension; mean n=2
Recorded metric: Tmax

Task: Given the molecule Cc1ccc(N2CCN(C)CC2)cc1C(=O)NC1(c2cc(-c3cnn(C)c3)nc3ccccc23)CC1 , what is its reported Tmax?
Output: 1 h

###

# Assay target: MERS_Plpro (Middle East respiratory syndrome-related coronavirus)
# Sequence (K9N7C7 1552-1823 limits assumed): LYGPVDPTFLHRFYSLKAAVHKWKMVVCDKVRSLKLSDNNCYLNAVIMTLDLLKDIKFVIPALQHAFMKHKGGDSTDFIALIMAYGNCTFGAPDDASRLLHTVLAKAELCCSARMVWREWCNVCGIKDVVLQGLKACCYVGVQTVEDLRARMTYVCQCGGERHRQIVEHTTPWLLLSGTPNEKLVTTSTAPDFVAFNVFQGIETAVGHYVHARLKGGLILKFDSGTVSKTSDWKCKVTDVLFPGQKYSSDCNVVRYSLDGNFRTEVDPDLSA
Recorded metric: Ki

Task: Please provide the recorded Ki for Cc1ccc(N2CCN(C)CC2)cc1C(=O)NC1(c2cc(-c3cnn(C)c3)nc3ccccc23)CC1 , tested on MERS_Plpro (Middle East respiratory syndrome-related coronavirus).
Output: > 10 µM

###

# Assay target: human Cav1.2/β2a/α2δ1 calcium channel (Homo sapiens, UniProt Q13936)
# Construct: assay run at Metrion Biosciences Ltd
# Experiment summary: hCav1.2 automated patch clamp
# Assay conditions: read-out: CaV IC50
# Procedure: 1000 rcf for 2 min and resuspended in CHO-S-SFM II (Gibco) at a density of 3 million cells […] Ionic currents were evaluated in the whole-cell configuration using the Qube384 automated planar patch clamp platform (Sophion Bioscience A/S, Ballerup, Denmark). […] Peak hERG current was measured during the ramp. […] Hz, and hCav1.2 current was measured as the peak current at 0 mV. […] exposure lasting 5 minutes. Patch clamp data were analyzed using Analyzer Software 6.4.72. […]
Recorded metric: IC50

Task: Please provide the recorded IC50 for Cc1ccc(N2CCN(C)CC2)cc1C(=O)NC1(c2cc(-c3cnn(C)c3)nc3ccccc23)CC1 [Compound 4] , tested on human Cav1.2/β2a/α2δ1 calcium channel (Homo sapiens, UniProt Q13936).
Output: > 100 µM

###

# Experiment summary: in vitro
# Assay conditions: African green monkey, Mean CC50, n=3
Recorded metric: CC50 (µM)
Please give a number only; it is taken to be in µM.

Task: Given the compound Cc1ccc(N2CCN(C)CC2)cc1C(=O)NC1(c2cc(-c3cnn(C)c3)nc3ccccc23)CC1 , what is its reported CC50?
Output: 69.3

###

# Assay target: Human Cathepsin S (Homo sapiens)
# Sequence (P25774 115-331): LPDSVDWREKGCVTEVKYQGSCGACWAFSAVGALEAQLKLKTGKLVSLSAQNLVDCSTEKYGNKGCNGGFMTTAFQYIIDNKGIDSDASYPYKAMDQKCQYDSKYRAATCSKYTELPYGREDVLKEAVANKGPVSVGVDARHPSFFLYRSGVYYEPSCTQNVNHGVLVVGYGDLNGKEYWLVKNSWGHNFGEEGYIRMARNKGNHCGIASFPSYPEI
pIC50: −log10 of the molar value.
Recorded metric: pIC50

Task: Please provide the recorded pIC50 for Cc1ccc(N2CCN(C)CC2)cc1C(=O)NC1(c2cc(-c3cnn(C)c3)nc3ccccc23)CC1 , tested on Human Cathepsin S (Homo sapiens).
Output: < 4.00

###

# Experiment summary: Rat pharmacokinetics
# Format: in vivo, Wistar-Hannover rat
# Assay conditions: male, Wistar-Hannover, rat, plasma, iv, 1 mg/kg, Male Wistar Hanover Rat; 1.0 mg/kg iv; solution; mean n=2; read-out: Vdss
Recorded metric: Vd
Give your result as the value with the unit written after it.

Task: Given the compound Cc1ccc(N2CCN(C)CC2)cc1C(=O)NC1(c2cc(-c3cnn(C)c3)nc3ccccc23)CC1 , what is its reported Vd?
Output: 4.42 L/kg

###

# Experiment summary: in vitro
# Assay conditions: dog, plasma
Recorded metric: fraction unbound
// print number alone

Task: Given the molecule Cc1ccc(N2CCN(C)CC2)cc1C(=O)NC1(c2cc(-c3cnn(C)c3)nc3ccccc23)CC1 , what is its reported fraction unbound?
Output: 0.176

###

# Experiment summary: in vitro
# Assay conditions: male, cynomolgus monkey, plasma
Recorded metric: fraction unbound
// print number alone

Task: Given the compound Cc1ccc(N2CCN(C)CC2)cc1C(=O)NC1(c2cc(-c3cnn(C)c3)nc3ccccc23)CC1 , what is its reported fraction unbound?
Output: 0.101

All figures here come from paper PMC11364104.
